The values you see were collected from PubChem BioAssay (EPA / NIEHS).

- Protocol summary: IUF_NPC1a_proliferation_area_72hr: Leibniz Research Institute for Environmental Medicine (IUF) 72-hour Neural Progenitor Cell Proliferation Area Assay (NPC1a) (AID 2284208)
Active and inactive are the calls of the source. How the source made its calls: active means hit-call score of the fitted dose curve at least 0.9, where 1 is the maximum; inactive means score below 0.9.
Classes to choose from: True for active, False for inactive

Query: Record lookup: outcome of this test for CC(CNC(=S)[S-])NC(=S)[S-].[Zn+2] (centres undefined) ?
Result: False

Query: Record lookup: outcome of this test for O=C1CC2(CCCC2)CC(=O)N1CCCCN1CCN(c2ncccn2)CC1 ?
Result: False

Query: Record lookup: outcome of this test for CC(=O)N[C@@H](CC(=O)O)C(=O)O ?
Result: False

---

- Protocol summary: CCTE_Mundy_HCI_Cortical_Synap_Neur_Matur_NeuriteCount: CCTE's Synaptogenesis and Neurite Maturation Assay in rat cortical cells for Neurite Count, Mundy Lab (AID 2284222)
Calls of active or inactive are those of the source. How the source made its calls: active means hit-call score of the fitted dose curve at least 0.9, where 1 is the maximum; inactive means score below 0.9.
Classes to choose from: active, inactive

A selection of reference data follows.
O=C1CC2(CCCC2)CC(=O)N1CCCCN1CCN(c2ncccn2)CC1; inactive
Cc1[nH]n(C)c(=O)c1C(=O)c1ccc(C(F)(F)F)cc1S(C)(=O)=O; inactive
F; inactive

Query: Record lookup: outcome of this test for [O]=[V]([OH])([OH])[OH] ?
Result: active

Query: Record lookup: outcome of this test for CC(C)O ?
Result: inactive

Query: Record lookup: outcome of this test for CC(C)c1nn(C(=O)NC(C)(C)C)c(=O)n1N ?
Result: inactive

Query: Record lookup: outcome of this test for CC(CNC(=S)[S-])NC(=S)[S-].[Zn+2] (stereo not drawn) ?
Result: active

Query: Record lookup: outcome of this test for CCCCCC(C)(CC)C(=O)NC (stereo not drawn) ?
Result: inactive

---

- Protocol summary: TOX21_p53_BLA_p3_viability: Viability Assessment in the Tox21 HCT-116 p53 Agonism Beta-lactamase Assay, Phase 3 (AID 2283593);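 further: cells exposed to compound for 16 h before reading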
Results filed as inconclusive are left out. Activity calls are given as the source filed them. Rule for the calls: active = hit-call score of the fitted dose curve at least 0.9, where 1 is the maximum; inconclusive = response in the unintended direction; inactive = score below 0.9.
Experimental endpoint: outcome

c1ccc2c(c1)ccc1c3ccccc3ccc21; inactive
Cc1ccc(Cl)cc1Cl; inactive
C=CC(C)CCC=C(C)C (configuration not stated); inactive
COc1ccc(C2CNC(=O)C2)cc1OC1CCCC1 (configuration not stated); inactive
COc1cc(C(=O)N2CCCCCCC2)cc(OC)c1OC; inactive

Query: Specify outcome for C/C=C(/CC[C@@H](C)[C@H]1CC[C@H]2C3=CC[C@H]4[C@H](C)[C@@H](O)CC[C@]4(C)[C@H]3CC[C@]12C)C(C)C and stop.
Result: inactive

Query: Specify outcome for C=CCCCCCC and stop.
Result: inactive

Query: Specify outcome for COc1ccc(CC2c3cc(OC)c(OC)cc3CC[N+]2(C)CCC(=O)OCCCCCOC(=O)CC[N+]2(C)CCc3cc(OC)c(OC)cc3C2Cc2ccc(OC)c(OC)c2)cc1OC (configuration not stated) and stop.
Result: inactive

Query: Specify outcome for COC(=O)NN and stop.
Result: inactive

Query: Specify outcome for CCCCOC(=O)C(=O)OCCCC and stop.
Result: inactive

Query: Specify outcome for CCCCCCCCCCCC[N+](C)(C)CCCS(=O)(=O)[O-] and stop.
Result: inactive

Query: Specify outcome for CC(C)(CCl)c1ccccc1 and stop.
Result: inactive

---

- Protocol summary: CCTE_Shafer_MEA_dev_active_electrodes_number: CCTE's Neural Network Formation Assay for Number of Active Electrodes, Shafer Lab (AID 2284040)
Inconclusive results are not listed. Activity calls are given as the source filed them. Rule for the calls: active = hit-call score of the fitted dose curve at least 0.9, where 1 is the maximum; inconclusive = response in the unintended direction; inactive = score below 0.9.
Classes to choose from: yes (1) for active, no (0) for inactive

A selection of reference data follows.
CCCCCC=C(C)C(CC)CCO (configuration not stated); no (0)
CC(C)c1nn(C(=O)NC(C)(C)C)c(=O)n1N; no (0)
Cc1[nH]n(C)c(=O)c1C(=O)c1ccc(C(F)(F)F)cc1S(C)(=O)=O; no (0)
CCc1ccccc1; no (0)
CN(C)CCCn1cc(C2=C(c3c[nH]c4ccccc34)C(=O)NC2=O)c2ccccc21; yes (1)

Query: Record lookup: outcome of this test for CCCCCC(C)(CC)C(=O)NC (configuration not stated) ?
Result: yes (1)

Query: Record lookup: outcome of this test for CC(C)O ?
Result: yes (1)

---

- Protocol summary: CCTE_Deisenroth_AIME_96WELL_CTox_Active: Cytotoxicity Assessment (CTOX) in CCTE's 96-well Estrogen Receptor Transactivation Assay with AIME metabolic competence (metabolism positive), Deisenroth Lab (AID 2284028)
Results filed as inconclusive are left out. Calls of active or inactive are those of the source. How the source made its calls: active means hit-call score of the fitted dose curve at least 0.9, where 1 is the maximum; inconclusive means response in the unintended direction; inactive means score below 0.9.
Classes to choose from: active, inactive

Query: Record lookup: outcome of this test for Oc1ccccc1Cc1ccccc1 ?
Result: active

Query: Record lookup: outcome of this test for c1ccc([C@H]2O[C@H]2c2ccccc2)cc1 ?
Result: inactive

Query: Record lookup: outcome of this test for c1ccc2c(c1)ccc1c3ccccc3ccc21 ?
Result: inactive

Query: Record lookup: outcome of this test for O=C(C=Cc1ccccc1)c1ccccc1 ?
Result: inactive

Query: Record lookup: outcome of this test for c1ccc(CCCc2ccccc2)cc1 ?
Result: inactive

Query: Record lookup: outcome of this test for CC/C(=C(\c1ccc(O)cc1)c1ccc(OCCN(C)C)cc1)c1ccccc1 ?
Result: active

---

- Protocol summary: CCTE_Shafer_MEA_dev_interburst_interval_mean: CCTE's Neural Network Formation Assay for Mean Interburst Interval, Shafer Lab (AID 2284046);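 further: well-mean interburst interval of bursting electrodes as AUC over four recording days; curve fitted for decrease in interburst interval relative to DMSO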
Calls of active or inactive are those of the source. How the source made its calls: active means hit-call score of the fitted dose curve at least 0.9, where 1 is the maximum; inactive means score below 0.9.
Experimental endpoint: AC50

Here's what some known entries look like.
C[C@@H]1CCO[C@H]2Cn3cc(C(=O)NCc4ccc(F)cc4F)c(=O)c(O)c3C(=O)N12; 1.74 µM (active)
O=C1CC2(CCCC2)CC(=O)N1CCCCN1CCN(c2ncccn2)CC1; inactive
CC(C)c1nn(C(=O)NC(C)(C)C)c(=O)n1N; inactive
BrC1CC(Br)CC(Br)CC(Br)CC(Br)CC(Br)C1 (centres undefined); 4.31 µM (active)
CC(CNC(=S)[S-])NC(=S)[S-].[Zn+2] (centres undefined); 50 µM (active)

Okay, next one:
Query: Specify AC50 for CCc1ccccc1 and stop.
Result: inactive

---

- System: Brachyury (BRA) Protein Expression, Deisenroth Lab, TBXT (gene 6862)
- Protocol summary: CCTE_Deisenroth_DEVTOX-GLR_legacy_Bra: (Legacy) CCTE's DevTox GLR-Endo Assay Evaluation of Brachyury (BRA) Protein Expression, Deisenroth Lab (AID 2284329)
The source made the active and inactive calls. How the source made its calls: active means hit-call score of the fitted dose curve at least 0.9, where 1 is the maximum; inactive means score below 0.9.
Classes to choose from: True for active, False for inactive

Query: Record lookup: outcome of this test for Nc1cccc2c1C(=O)N(C1CCC(=O)NC1=O)C2=O (stereo not given) ?
Result: False

Query: Record lookup: outcome of this test for CC1(C)S[C@@H]2[C@H](NC(=O)Cc3ccccc3)C(=O)N2[C@H]1C(=O)O ?
Result: False

Query: Record lookup: outcome of this test for NC(=O)c1ccc(-c2nc(-c3ccc4c(c3)OCO4)c(-c3ccccn3)[nH]2)cc1 ?
Result: False

Query: Record lookup: outcome of this test for COc1ccc2[nH]c([S@@](=O)Cc3ncc(C)c(OC)c3C)nc2c1 ?
Result: True

Query: Record lookup: outcome of this test for c1cc(-c2cnn3cc(-c4ccc(OCCN5CCCCC5)cc4)cnc23)ccn1 ?
Result: True

---

- Target entity: Estrogen receptor (Homo sapiens)
- Protocol summary: CCTE_Deisenroth_AIME_96WELL_LUC_Inactive: CCTE's 96-well Estrogen Receptor Transactivation Assay without AIME metabolic competence (ERTA luciferase; metabolism negative), Deisenroth Lab (AID 2284025)
Records with an inconclusive call do not appear. Active and inactive are the calls of the source. Rule for the calls: active = hit-call score of the fitted dose curve at least 0.9, where 1 is the maximum; inconclusive = response in the unintended direction; inactive = score below 0.9.
Classes to choose from: active, inactive

A selection of reference data follows.
COc1ccc(C=Cc2ccc(OC)cc2)cc1; inactive
Oc1ccccc1Cc1ccccc1; active
c1ccc([C@H]2O[C@H]2c2ccccc2)cc1; active
c1ccc(CCCc2ccccc2)cc1; active

Continue with the next molecule.
Query: Record lookup: outcome of this test for C(#Cc1ccccc1)c1ccccc1 ?
Result: active

---

- Tested on: SRY-box transcription factor 2 (SOX2) Protein Expression, Deisenroth Lab, SOX2 (gene 6657)
- Protocol summary: CCTE_Deisenroth_DEVTOX-GLR_Endo_SOX2: CCTE's DevTox GLR-Endo Assay Evaluation of SRY-box transcription factor 2 (SOX2) Protein Expression, Deisenroth Lab (AID 2284412)
Records with an inconclusive call do not appear. Calls of active or inactive are those of the source. The calls were made as follows: active = hit-call score of the fitted dose curve at least 0.9, where 1 is the maximum; inconclusive = response in the unintended direction; inactive = score below 0.9.
Classes to choose from: YES (active), NO (inactive)

A selection of reference data follows.
Oc1cc(O)c2c(c1)O[C@H](c1ccc(O)c(O)c1)[C@@H](O)C2; NO
CC1(C)S[C@@H]2[C@H](NC(=O)Cc3ccccc3)C(=O)N2[C@H]1C(=O)O; NO
COc1ccc2[nH]c([S@@](=O)Cc3ncc(C)c(OC)c3C)nc2c1; YES

Continue with the next compound.
Query: Record lookup: outcome of this test for c1cc(-c2cnn3cc(-c4ccc(OCCN5CCCCC5)cc4)cnc23)ccn1 ?
Result: YES
